- measurement-protocol: Half-life in Sprague-Dawley rat at 10 mg/kg, po by LC-MS/MS analysis
- Assay type: ADME, organism-based
- test-settings: in vivo
assay-metric: half-life (h)
Provide the reading as a plain figure in h.

Data request, read-out half-life, for CN(Cc1ccc(N2CCN(Cc3ccc(F)cc3Br)CC2)cc1)CC(O)(Cn1cncn1)c1ccc(F)cc1F (stereo unspecified) 1.12

====

- Tested on: Candida albicans
- measurement-protocol: Antifungal activity against fluconazole-resistant Candida albicans clinical isolate 100 assessed as inhibition of fungal growth by CLSI M27-A3 guidelines based method
- Format: functional
assay-metric: MIC80 (µg/mL)
Use µg/mL as the unit, but write only the number.

Example entries begin here.
compound	units-of-measure	MIC80
CN(Cc1ccc(I)cc1)CC(O)(Cn1cncn1)c1ccc(F)cc1F (stereo not given)	µg/mL	2
CN(Cc1ccc(N2CCN(Cc3ccc(Cl)cc3Br)CC2)cc1)CC(O)(Cn1cncn1)c1ccc(F)cc1F (stereo not given)	µg/mL	8
CN(Cc1ccc(N2CCN(Cc3ccc(C(C)(C)C)cc3)CC2)cc1)CC(O)(Cn1cncn1)c1ccc(F)cc1F (stereo not given)	µg/mL	8
CN(Cc1ccc(N2CCN(Cc3ccc(OC(F)(F)F)cc3)CC2)cc1)CC(O)(Cn1cncn1)c1ccc(F)cc1F (stereo not given)	µg/mL	8
CN(Cc1ccc(N2CCN(Cc3ccccc3Br)CC2)cc1)CC(O)(Cn1cncn1)c1ccc(F)cc1F (stereo not given)	µg/mL	4

What does the record list as MIC80 for CN(Cc1ccc(N2CCN(Cc3cc(F)ccc3Br)CC2)cc1)CC(O)(Cn1cncn1)c1ccc(F)cc1F (stereo not given) ? 2

State the recorded MIC80 for this entry: CN(Cc1ccc(N2CCN(Cc3cccc(Br)c3)CC2)cc1)CC(O)(Cn1cncn1)c1ccc(F)cc1F (stereo not given) 8

Form field: reported MIC80 of CN(Cc1ccc(N2CCN(Cc3ccc(F)cc3Br)CC2)cc1)CC(O)(Cn1cncn1)c1ccc(F)cc1F (stereo not given) 2

Could you share which MIC80 value was measured for CN(Cc1ccc(N2CCN(Cc3ccc(C(F)(F)F)cc3)CC2)cc1)CC(O)(Cn1cncn1)c1ccc(F)cc1F (stereo not given) ? 8
